Data credit: patent US5026687A

Assay: clinical
Conditions: human, in vivo, iv, 3.2 mg/kg
ENDPOINT: Cmax

Endpoint output: Cmax of OC[C@@H]1CC[C@H](n2cnc3c(O)ncnc32)O1 . Value?
~10 µM

* * *

Assay: clinical
Details: human, in vivo, iv, 3.2 mg/kg
ENDPOINT: half-life

Endpoint output: half-life of OC[C@@H]1CC[C@H](n2cnc3c(O)ncnc32)O1 . Value?
~40 min
